Attribution: patent US12714706B2

experiment: Analytical results and impurity profile of batches of Form A and Form B of lurbinectedin; format: physicochemical; settings: batches of Form B of lurbinectedin
reportedMetric: Residual Solvents Pentane

COc1ccc2[nH]c3c(c2c1)CCN[C@]31CS[C@@H]2c3c(OC(C)=O)c(C)c4c(c3[C@H](COC1=O)N1[C@@H]2[C@H]2c3c(cc(C)c(OC)c3O)C[C@@H]([C@@H]1O)N2C)OCO4 [Batch 1924129-LT]    <LOQ
COc1ccc2[nH]c3c(c2c1)CCN[C@]31CS[C@@H]2c3c(OC(C)=O)c(C)c4c(c3[C@H](COC1=O)N1[C@@H]2[C@H]2c3c(cc(C)c(OC)c3O)C[C@@H]([C@@H]1O)N2C)OCO4 [Batch 1711182-2]    <LOQ

###

assay: Analytical results and impurity profile of batches of Form A and Form B of lurbinectedin; type: physicochemical; parameters: unit not given here; settings: impurity profile, batches of Form A
Impurity RRT approx. 1.29-1.30 strictly less than 0.09 = Yes. Otherwise No.

COc1ccc2[nH]c3c(c2c1)CCN[C@]31CS[C@@H]2c3c(OC(C)=O)c(C)c4c(c3[C@H](COC1=O)N1[C@@H]2[C@H]2c3c(cc(C)c(OC)c3O)C[C@@H]([C@@H]1O)N2C)OCO4 [Batch K02]    Yes
COc1ccc2[nH]c3c(c2c1)CCN[C@]31CS[C@@H]2c3c(OC(C)=O)c(C)c4c(c3[C@H](COC1=O)N1[C@@H]2[C@H]2c3c(cc(C)c(OC)c3O)C[C@@H]([C@@H]1O)N2C)OCO4 [Batch K03]    No
COc1ccc2[nH]c3c(c2c1)CCN[C@]31CS[C@@H]2c3c(OC(C)=O)c(C)c4c(c3[C@H](COC1=O)N1[C@@H]2[C@H]2c3c(cc(C)c(OC)c3O)C[C@@H]([C@@H]1O)N2C)OCO4 [Batch K04]    No

I wonder whether COc1ccc2[nH]c3c(c2c1)CCN[C@]31CS[C@@H]2c3c(OC(C)=O)c(C)c4c(c3[C@H](COC1=O)N1[C@@H]2[C@H]2c3c(cc(C)c(OC)c3O)C[C@@H]([C@@H]1O)N2C)OCO4 [Batch P02] has Impurity RRT approx. 1.29-1.30 below 0.09. Can you tell?
Yes

###

Experiment: Analytical results and impurity profile of batches of Form A and Form B of lurbinectedin
Format: physicochemical
Conditions: impurity profile, batches of Form B
Source text: Several batches of Form A of lurbinectedin were manufactured by this method. Several batches of Form B of lurbinectedin were manufactured by this method.
Decide by Impurity RRT aprox 0.72-0.76: equal to or exceeding 0.3 % area means 1, less means -1.

Illustrative cases are given below, each with its answer.
COc1ccc2[nH]c3c(c2c1)CCN[C@]31CS[C@@H]2c3c(OC(C)=O)c(C)c4c(c3[C@H](COC1=O)N1[C@@H]2[C@H]2c3c(cc(C)c(OC)c3O)C[C@@H]([C@@H]1O)N2C)OCO4 [Batch 1799069]    1
COc1ccc2[nH]c3c(c2c1)CCN[C@]31CS[C@@H]2c3c(OC(C)=O)c(C)c4c(c3[C@H](COC1=O)N1[C@@H]2[C@H]2c3c(cc(C)c(OC)c3O)C[C@@H]([C@@H]1O)N2C)OCO4 [Batch R02]    -1
COc1ccc2[nH]c3c(c2c1)CCN[C@]31CS[C@@H]2c3c(OC(C)=O)c(C)c4c(c3[C@H](COC1=O)N1[C@@H]2[C@H]2c3c(cc(C)c(OC)c3O)C[C@@H]([C@@H]1O)N2C)OCO4 [Batch R03]    -1
COc1ccc2[nH]c3c(c2c1)CCN[C@]31CS[C@@H]2c3c(OC(C)=O)c(C)c4c(c3[C@H](COC1=O)N1[C@@H]2[C@H]2c3c(cc(C)c(OC)c3O)C[C@@H]([C@@H]1O)N2C)OCO4 [Batch 1711182-2]    1
COc1ccc2[nH]c3c(c2c1)CCN[C@]31CS[C@@H]2c3c(OC(C)=O)c(C)c4c(c3[C@H](COC1=O)N1[C@@H]2[C@H]2c3c(cc(C)c(OC)c3O)C[C@@H]([C@@H]1O)N2C)OCO4 [Batch P05]    -1
COc1ccc2[nH]c3c(c2c1)CCN[C@]31CS[C@@H]2c3c(OC(C)=O)c(C)c4c(c3[C@H](COC1=O)N1[C@@H]2[C@H]2c3c(cc(C)c(OC)c3O)C[C@@H]([C@@H]1O)N2C)OCO4 [Batch R04]    -1

Please turn your attention to the following entry.
Does Impurity RRT aprox 0.72-0.76 meet or surpass 0.3 % area for COc1ccc2[nH]c3c(c2c1)CCN[C@]31CS[C@@H]2c3c(OC(C)=O)c(C)c4c(c3[C@H](COC1=O)N1[C@@H]2[C@H]2c3c(cc(C)c(OC)c3O)C[C@@H]([C@@H]1O)N2C)OCO4 [Batch R01] ?
-1

###

test: physchem; details: sodium succinate buffer, pH 5, aqueous buffer
reportedMetric: solubility

Hello, please tell me recorded solubility for this one: COc1ccc2[nH]c3c(c2c1)CCN[C@]31CS[C@@H]2c3c(OC(C)=O)c(C)c4c(c3[C@H](COC1=O)N1[C@@H]2[C@H]2c3c(cc(C)c(OC)c3O)C[C@@H]([C@@H]1O)N2C)OCO4
40 µg/mL

###

test: Analytical results and impurity profile of batches of Form A and Form B of lurbinectedin; assay type: physicochemical; parameters: unit not given here; conditions: impurity profile, batches of Form A
Labelling field: enter Criterion met if recorded Impurity RRT approx. 0.72-0.76 is less than 0.1. Enter Criterion not met if it equals or exceeds that cut-off.

Example entries begin here.
COc1ccc2[nH]c3c(c2c1)CCN[C@]31CS[C@@H]2c3c(OC(C)=O)c(C)c4c(c3[C@H](COC1=O)N1[C@@H]2[C@H]2c3c(cc(C)c(OC)c3O)C[C@@H]([C@@H]1O)N2C)OCO4 [Batch M03]    Criterion not met
COc1ccc2[nH]c3c(c2c1)CCN[C@]31CS[C@@H]2c3c(OC(C)=O)c(C)c4c(c3[C@H](COC1=O)N1[C@@H]2[C@H]2c3c(cc(C)c(OC)c3O)C[C@@H]([C@@H]1O)N2C)OCO4 [Batch K03]    Criterion met
COc1ccc2[nH]c3c(c2c1)CCN[C@]31CS[C@@H]2c3c(OC(C)=O)c(C)c4c(c3[C@H](COC1=O)N1[C@@H]2[C@H]2c3c(cc(C)c(OC)c3O)C[C@@H]([C@@H]1O)N2C)OCO4 [Batch G01]    Criterion not met
COc1ccc2[nH]c3c(c2c1)CCN[C@]31CS[C@@H]2c3c(OC(C)=O)c(C)c4c(c3[C@H](COC1=O)N1[C@@H]2[C@H]2c3c(cc(C)c(OC)c3O)C[C@@H]([C@@H]1O)N2C)OCO4 [Batch M02]    Criterion met

Please determine if COc1ccc2[nH]c3c(c2c1)CCN[C@]31CS[C@@H]2c3c(OC(C)=O)c(C)c4c(c3[C@H](COC1=O)N1[C@@H]2[C@H]2c3c(cc(C)c(OC)c3O)C[C@@H]([C@@H]1O)N2C)OCO4 [Batch F02] is below 0.1 in terms of Impurity RRT approx. 0.72-0.76.
Criterion met

Determine if COc1ccc2[nH]c3c(c2c1)CCN[C@]31CS[C@@H]2c3c(OC(C)=O)c(C)c4c(c3[C@H](COC1=O)N1[C@@H]2[C@H]2c3c(cc(C)c(OC)c3O)C[C@@H]([C@@H]1O)N2C)OCO4 [Batch K02] shows Impurity RRT approx. 0.72-0.76 strictly lower than 0.1.
Criterion met

###

Experiment: Analytical results and impurity profile of batches of Form A and Form B of lurbinectedin
Assay type: physicochemical
Conditions: batches of Form B of lurbinectedin
Source text: Several batches of Form A of lurbinectedin were manufactured by this method. Several batches of Form B of lurbinectedin were manufactured by this method.
reportedMetric: Total Impurities (% Area)
Please give a number only; it is taken to be in % Area.

COc1ccc2[nH]c3c(c2c1)CCN[C@]31CS[C@@H]2c3c(OC(C)=O)c(C)c4c(c3[C@H](COC1=O)N1[C@@H]2[C@H]2c3c(cc(C)c(OC)c3O)C[C@@H]([C@@H]1O)N2C)OCO4 [Batch R01]    0.3
COc1ccc2[nH]c3c(c2c1)CCN[C@]31CS[C@@H]2c3c(OC(C)=O)c(C)c4c(c3[C@H](COC1=O)N1[C@@H]2[C@H]2c3c(cc(C)c(OC)c3O)C[C@@H]([C@@H]1O)N2C)OCO4 [Batch 1799069]    0.4
COc1ccc2[nH]c3c(c2c1)CCN[C@]31CS[C@@H]2c3c(OC(C)=O)c(C)c4c(c3[C@H](COC1=O)N1[C@@H]2[C@H]2c3c(cc(C)c(OC)c3O)C[C@@H]([C@@H]1O)N2C)OCO4 [Batch 1711182-2]    0.3
COc1ccc2[nH]c3c(c2c1)CCN[C@]31CS[C@@H]2c3c(OC(C)=O)c(C)c4c(c3[C@H](COC1=O)N1[C@@H]2[C@H]2c3c(cc(C)c(OC)c3O)C[C@@H]([C@@H]1O)N2C)OCO4 [Batch P05]    0.3

# context switch: different compound, same Total Impurities
Please give measured Total Impurities of the following entry: COc1ccc2[nH]c3c(c2c1)CCN[C@]31CS[C@@H]2c3c(OC(C)=O)c(C)c4c(c3[C@H](COC1=O)N1[C@@H]2[C@H]2c3c(cc(C)c(OC)c3O)C[C@@H]([C@@H]1O)N2C)OCO4 [Batch R04]
0.4
